Below, each entry is listed alongside its reported pEC50.
target-entity: human TGR5 (h-TGR5) (Homo sapiens, UniProt Q8TDU6)
Construct: expressed in transfected cells
Sequence (Q8TDU6 1-330): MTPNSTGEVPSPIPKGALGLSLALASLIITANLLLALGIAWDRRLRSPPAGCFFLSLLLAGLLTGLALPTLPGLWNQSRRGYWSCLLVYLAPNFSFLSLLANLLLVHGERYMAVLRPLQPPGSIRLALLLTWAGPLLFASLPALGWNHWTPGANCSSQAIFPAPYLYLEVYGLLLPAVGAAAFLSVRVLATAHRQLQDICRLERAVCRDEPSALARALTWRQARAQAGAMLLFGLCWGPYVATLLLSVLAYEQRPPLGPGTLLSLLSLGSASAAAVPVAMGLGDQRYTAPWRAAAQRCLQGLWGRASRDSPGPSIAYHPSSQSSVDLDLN
experiment-description: TGR5/CRE-Luciferiase Assay (HEK 293 hTGR5/CRE-Luc cells)
Assay type: cell-based
condition-description: h-TGR5 CRE-Luc EC50, Table 1; read-out: CRE-Luc (EC50)
pEC50: −log10 of the molar value.

**Q:** Give the measured pEC50 of "CC(C)(c1ccc(Cl)c(Cl)c1)c1cnc(S(=O)(=O)Cc2cc(Cl)ccc2Cl)n1-c1ccc(F)cc1" .
**A:** 6.00 to 7.00

**Q:** Fill blank: measured pEC50 of the molecule "CC(C)(O)COc1ccc(CSc2ncc(C(C)(C)c3ccc(Cl)c(Cl)c3)n2-c2ccc(F)cc2)cc1S(N)(=O)=O" is ____.
**A:** > 7.00

**Q:** So what does the record say about pEC50 for "COc1ccc(C(C)(C)c2cnc(SCc3ccc(F)c(S(N)(=O)=O)c3)n2-c2ccc(F)cc2)cc1OC" ?
**A:** > 7.00

**Q:** Would you kindly share the measured pEC50 for "CC(C)(c1ccc(F)c(F)c1)c1cnc(SCc2c(F)cc(C(=O)O)cc2Cl)n1-c1ccc(F)cc1" ?
**A:** 6.00 to 7.00

**Q:** Form field: reported pEC50 of "CC(C)(c1ccc(Cl)c(Cl)c1)c1cnc(SCc2ccc(Cl)c(-c3nnn[nH]3)c2)n1-c1cccc(Cl)c1"
**A:** 6.00 to 7.00

----------
target-entity: human TGR5 (h-TGR5) (Homo sapiens)
Construct: expressed in transfected cells
experiment-description: TGR5/CRE-Luciferiase Assay (HEK 293 hTGR5/CRE-Luc cells)
Assay type: cell-based
condition-description: h-TGR5 CRE-Luc EC50, Table 1; read-out: CRE-Luc (EC50)
pEC50: −log10 of the molar value.
parameter-measured: pEC50

smiles-code | result
CC(C)(c1ccc(Cl)c(Cl)c1)c1cnc(SCc2c(F)cccc2Cl)n1-c1ccc(Cl)c(F)c1 | 6.00 to 7.00
COc1ccc(C(C)(C)c2cnc(SCc3c(F)cccc3Cl)n2-c2ccc(F)cc2)cc1Cl | > 7.00
CC(C)(Oc1cc(F)ccc1CSc1ncc(C(C)(C)c2ccc(Cl)c(Cl)c2)n1-c1ccc(F)cc1)C(=O)O | 5.00 to 6.00
CC(C)(c1ccc(Cl)c(Cl)c1)c1cnc(SCc2ccc(F)c(C(=O)NCCc3c[nH]cn3)c2)n1-c1ccc(F)cc1 | 6.00 to 7.00
CC(C)(c1ccc(Cl)c(S(N)(=O)=O)c1)c1cnc(SCc2ccc(Cl)c(-c3nnn[nH]3)c2)n1-c1ccc(F)cc1 | 6.00 to 7.00
COc1cc(C(C)(C)c2cnc(SCc3c(F)cccc3Cl)n2-c2cccnc2)ccc1Cl | 6.00 to 7.00

**Q:** What does the record list as pEC50 for "COc1cc(-n2c(C(C)(C)c3ccc(Cl)c(OC)c3)cnc2SCc2ccc(S(=O)(=O)NC(=O)NN3CCCC3)cc2Cl)ccc1F" ?
**A:** > 7.00

**Q:** // pEC50 lookup, key: "CC(C)(c1ccc(Cl)c(Cl)c1)c1cnc(SCc2ccc(F)cc2OCC(=O)O)n1-c1ccc(F)cc1"
**A:** 6.00 to 7.00

----------
target-entity: human TGR5 (h-TGR5) (Homo sapiens)
Construct: expressed in transfected cells
Sequence (Q8TDU6 1-330): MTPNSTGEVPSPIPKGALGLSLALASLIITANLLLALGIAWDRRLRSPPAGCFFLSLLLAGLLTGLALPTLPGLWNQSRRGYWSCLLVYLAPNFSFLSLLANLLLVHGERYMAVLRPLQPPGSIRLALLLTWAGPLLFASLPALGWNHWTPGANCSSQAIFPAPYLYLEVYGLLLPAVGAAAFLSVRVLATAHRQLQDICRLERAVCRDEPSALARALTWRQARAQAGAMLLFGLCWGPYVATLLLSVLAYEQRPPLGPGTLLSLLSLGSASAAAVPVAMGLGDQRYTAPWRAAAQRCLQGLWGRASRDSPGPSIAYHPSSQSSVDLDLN
experiment-description: TGR5/CRE-Luciferiase Assay (HEK 293 hTGR5/CRE-Luc cells)
Assay type: cell-based
condition-description: h-TGR5 CRE-Luc EC50, Table 1; read-out: CRE-Luc (EC50)
Parameter: EC50. Scope: all listed entries.

These recorded examples may help you get a feel for the data.
smiles-code | EC50
COc1cc(-n2c(C(C)(C)c3ccc4onc(N)c4c3)cnc2SCc2c(F)cc(C(=O)O)cc2F)ccc1F | < 100 nM
CC(C)(c1ccc2c(c1)OCO2)c1cnc(SCc2c(F)cccc2Cl)n1-c1ccc(F)cc1 | < 100 nM

**Q:** I am curious: what EC50 value has been reported for "COc1cc(-n2c(C(C)(C)c3ccc(Cl)c(Cl)c3)cnc2SCc2c(F)cccc2Cl)ccc1F" ?
**A:** < 100 nM

**Q:** Could you tell me which EC50 is on file for "CC(C)(c1ccc2ccccc2c1)c1cnc(SCc2c(F)cc(C(=O)O)cc2F)n1-c1ccc(F)cc1" ?
**A:** 100 to 1000 nM

**Q:** Form field: reported EC50 of "COc1cc(C(C)(C)c2cnc(SCc3ccc(F)c(-c4nnn[nH]4)c3)n2-c2ccc(F)cc2)ccc1Cl"
**A:** < 100 nM

**Q:** Tell me the measured EC50 of "COc1cc(-n2c(C(C)(C)c3ccc(S(N)(=O)=O)c(Cl)c3)cnc2SCc2ccc(S(=O)(=O)NC(=O)NN3CCCCC3)cc2Cl)ccc1F" , please.
**A:** 100 to 1000 nM

**Q:** Tell me the measured EC50 of "CC(C)(c1ccc(Cl)c(Cl)c1)c1cnc(S(=O)(=O)Cc2c(F)cccc2Cl)n1-c1ccc(Cl)c(Cl)c1" , please.
**A:** 1000 to 10000 nM

**Q:** What does the record list as EC50 for "CC(C)(c1ccc(Cl)c(Cl)c1)c1cnc(SCc2ccc(S(N)(=O)=O)cc2F)n1-c1ccc(F)cc1" ?
**A:** 100 to 1000 nM

**Q:** I have this molecule here, "CC(C)(c1ccc(Cl)c(Cl)c1)c1cnc(SCc2ccc(C(N)=O)cc2F)n1-c1ccc(F)cc1" , and I need its recorded EC50.
**A:** 100 to 1000 nM

**Q:** Request the reported EC50 associated with "CCN(CC)CCOc1cc(-n2c(C(C)(C)c3ccc(Cl)c(Cl)c3)cnc2SCc2c(F)cc(C(=O)O)cc2Cl)ccc1F"
**A:** 100 to 1000 nM

**Q:** Suppose we examine the molecule "COc1cc(C(C)(C)c2c(C)nc(SCc3c(F)cccc3Cl)n2-c2ccc(F)cc2)ccc1Cl" ; what EC50 value has been reported?
**A:** 100 to 1000 nM

**Q:** Given "CC(C)(c1ccc(F)cc1)c1cnc(SCc2ccc(S(=O)(=O)NC(=O)NN3CCCC3)cc2Cl)n1-c1ccc(F)c(F)c1" , state its recorded EC50.
**A:** 1000 to 10000 nM

**Q:** Fill in: EC50 of "CC(C)(c1ccc(F)c(Cl)c1)c1cnc(SCc2c(F)cccc2Cl)n1-c1ccc(F)cc1" is ___
**A:** < 100 nM

**Q:** Look at this molecule and give its reported EC50. "CC(C)(c1ccc(Cl)c(Cl)c1)c1cnc(SCc2c(F)cc(C#N)cc2F)n1-c1ccc(F)cc1"
**A:** < 100 nM

----------
// reported pEC50 for each item listed
target-entity: h-TGR5 (Homo sapiens, UniProt Q8TDU6)
Construct: expressed in transfected cells
Sequence (Q8TDU6 1-330): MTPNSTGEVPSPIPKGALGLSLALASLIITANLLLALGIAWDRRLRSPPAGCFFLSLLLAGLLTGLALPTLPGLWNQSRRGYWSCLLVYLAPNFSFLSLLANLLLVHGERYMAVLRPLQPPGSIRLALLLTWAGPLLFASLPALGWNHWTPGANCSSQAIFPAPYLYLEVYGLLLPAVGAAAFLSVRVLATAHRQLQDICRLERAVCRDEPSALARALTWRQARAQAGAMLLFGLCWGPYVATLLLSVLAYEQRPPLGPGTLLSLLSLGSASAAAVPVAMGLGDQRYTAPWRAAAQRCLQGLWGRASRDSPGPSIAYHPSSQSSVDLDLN
experiment-description: TGR5 cAMP Assay using Cisbio cAMP Dynamic2 htrf kit (hTGR5CRE-luc HEK 293 cells)
Assay type: cell-based
condition-description: h-TGR5 cAMP EC50, Table 1; read-out: cAMP (EC50)
pEC50: −log10 of the molar value.

Would you please look over these solved cases?
smiles-code | pEC50
CC(C)(c1ccc(Cl)c(Cl)c1)c1cnc(SCc2c(F)cccc2Cl)n1-c1ccc(F)cc1F | 6.00 to 7.00
COc1cc(C(C)(C)c2cnc(SCc3ccc(S(=O)(=O)NC(=O)NN4CCCC4)cc3Cl)n2-c2ccc(F)c(F)c2)ccc1Cl | 6.00 to 7.00

**Q:** What pEC50 value was documented for this compound, "CC(C)(c1ccc(S(C)(=O)=O)cc1)c1cnc(SCc2ccc(Cl)c(-c3nnn[nH]3)c2)n1-c1ccc(F)cc1" ?
**A:** 5.00 to 6.00

**Q:** I have this compound here, "COc1cc(C(C)(C)c2cnc(SCc3ccc(C(=O)O)c(F)c3)n2-c2ccc(F)cc2)ccc1Cl" , and I need its recorded pEC50.
**A:** > 7.00
